- target-of-assay: UniProt P43116
- Sequence (P43116 whole entry): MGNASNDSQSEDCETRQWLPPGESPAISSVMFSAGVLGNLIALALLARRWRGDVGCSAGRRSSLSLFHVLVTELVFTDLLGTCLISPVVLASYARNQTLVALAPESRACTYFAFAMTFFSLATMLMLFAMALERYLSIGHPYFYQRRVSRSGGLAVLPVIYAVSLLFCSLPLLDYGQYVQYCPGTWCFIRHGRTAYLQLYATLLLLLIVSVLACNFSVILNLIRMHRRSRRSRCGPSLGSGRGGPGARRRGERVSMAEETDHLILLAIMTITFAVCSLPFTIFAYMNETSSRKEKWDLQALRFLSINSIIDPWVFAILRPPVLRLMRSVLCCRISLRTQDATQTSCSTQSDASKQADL
- test-description: hEP2 b-arrestin assay (PathHunter HEK 293 PTGER2 b-arrestin cells)
- reported-conditions: antagonistic activity, beta-arrestin assay; read-out: hEP2 b-arr IC50
readout: log10 of IC50 (log10 of the value in nM)
Plainly stated, the numbers are log10 of IC50 given in nM.

Input: Which log10 of IC50 value belongs to CCOc1cc(-c2cc(NCCc3ccc4ncccc4c3F)ncn2)sc1C(=O)O ?
Output: 2.64

Input: Similarly, CCOc1cc(-c2cc(NCCc3c(OCC)cc4ccccc4c3F)ncn2)ccc1C(=O)O ?
Output: 1.20

Input: Similarly, CCOc1cc(-c2cc(NCCc3ccc4ccccc4c3C)ncn2)sc1C(=O)NS(C)(=O)=O ?
Output: 1.74

Input: Similarly, CCOc1cc2ccccc2c(C)c1CCNc1cc(-c2ccc(C(=O)O)c(SC)c2)ncn1 ?
Output: 0.48

Input: Similarly, O=C(O)c1ccc(-c2cc(NCCc3cc(F)c4sccc4c3)ncn2)c2cc[nH]c12 ?
Output: 2.84

Input: Similarly, CCc1cc(-c2cc(NCCc3cc(F)c4sccc4c3)ncn2)ccc1C(=O)O ?
Output: 2.06

Input: Similarly, COc1cc2c(c(C)c1CCNc1cc(-c3ccc(C(=O)O)c(OC(C)C)c3)ncn1)OCCO2 ?
Output: 1.30

Input: Similarly, CCOc1cc(-c2cc(NCCc3cc(F)c4sccc4c3)ncn2)ccc1C(=O)O ?
Output: 2.27

Input: Similarly, O=C(O)c1ccc(-c2cc(NCCc3cc(F)c4sccc4c3)ncn2)cc1OC1CC1 ?
Output: 1.92

Input: Similarly, O=C(O)c1cccc2[nH]c(-c3cc(NCCc4cc(F)c5sccc5c4)ncn3)cc12 ?
Output: 2.80

Input: Similarly, Cc1c(CCNc2cc(-c3ccc(C(=O)O)c(OC4CCC4)c3)ncn2)ccc2ccccc12 ?
Output: 2.18

Input: Similarly, CCOc1cc(-c2cc(NCCc3ccc4c(c3)CCS4)ncn2)sc1C(=O)O ?
Output: 2.25

Input: Similarly, CCCc1cc(-c2cc(NCCc3ccc4c(c3C)OCCO4)ncn2)ccc1CC(=O)O ?
Output: 2.03

Input: Similarly, CCOc1cc(-c2cc(NCCc3cc(F)c4sccc4c3)ncn2)ccc1C(=O)C(=O)O ?
Output: 2.83

Input: Similarly, CCOc1cc(-c2cc(NCCc3ccc4ccn(C)c4c3)ncn2)sc1C(=O)O ?
Output: 2.38

Input: Similarly, CCOc1cc(-c2cc(NCCc3ccc4scnc4c3)ncn2)sc1C(=O)O ?
Output: 2.03

Input: Similarly, CCOc1cc(-c2cc(NCCc3cc4ccoc4cc3OC)ncn2)sc1C(=O)O ?
Output: 0.85

Input: Similarly, CCOc1cc(-c2cc(NCCc3ccc4c(c3)OCO4)ncn2)sc1C(=O)O ?
Output: 2.06

Input: Similarly, O=c1[nH]c(-c2ccc(-c3cc(NCCc4cc(F)c5sccc5c4)ncn3)cc2)no1 ?
Output: 2.84

Input: Similarly, CCOc1cc2sccc2cc1CCNc1cc(-c2ccc(C(=O)O)c(OCC)c2)ncn1 ?
Output: 0.90

Input: Similarly, CCOc1cc(-c2cc(NCCc3ccc4scc(C)c4c3)ncn2)ccc1C(=O)O ?
Output: 2.50

Input: Similarly, CCOc1cc(-c2cc(NCCc3cc(C)c4sccc4c3)ncn2)ccc1C(=O)O ?
Output: 2.63

Input: Similarly, CCOc1cc(-c2cc(NCCc3cc(C)c4sccc4c3)ncn2)sc1C(=O)O ?
Output: 2.12

Input: Similarly, CCOc1cc2c(cc1CCNc1cc(-c3ccc(C(=O)O)c(SC)c3)ncn1)OCCO2 ?
Output: 1.15

Input: Similarly, O=C(O)c1n[nH]c2cc(-c3cc(NCCc4cc(F)c5sccc5c4)ncn3)ccc12 ?
Output: 2.90

Input: Similarly, CCOc1cc(-c2cc(NCCc3cc4ccsc4c(F)c3OC)ncn2)ccc1CC(=O)O ?
Output: 1.65

Input: Similarly, COc1cc(-c2cc(NCCc3cc(F)c4sccc4c3)ncn2)ccc1-c1cc(O)no1 ?
Output: 2.48

Input: Similarly, COc1cc2sccc2cc1CCNc1cc(-c2ccc(C(=O)O)c(SC)c2)ncn1 ?
Output: 0.78

Input: Similarly, CSc1cc(-c2cc(NCCc3cc(F)c4sccc4c3)ncn2)ccc1C(=O)O ?
Output: 2.18

Input: Similarly, CCOc1cc(-c2cc(NCCc3cc4c(cc3C)OCCO4)ncn2)ccc1OCC(=O)O ?
Output: 2.23

Input: Similarly, CCCc1cc(-c2cc(NCCc3cc4c(cc3OC)OCCO4)ncn2)ccc1C(C)C(=O)O (racemic) ?
Output: 2.52

Input: Similarly, O=C(O)Cc1ccc(-c2cc(NCCc3cc(F)c4sccc4c3)ncn2)cc1OC(F)F ?
Output: 2.53

Input: Similarly, CCOc1cc(-c2cc(NCCc3cc4cccnc4c(F)c3Cl)ncn2)sc1C(=O)O ?
Output: 1.72

Input: Similarly, CCOc1cc(-c2cc(NCCc3cc4c(cc3C)OCCO4)ncn2)ccc1C(=O)O ?
Output: 2.47
